Where do the numbers come from? From the supplement of paper PMC7877785.

A collection of sequences and their measured self-splicing fitness (ln)
# methodDescription: self-splicing fitness, log relative to wild type (ln ratio); higher = more splicing; Tetrahymena group I intron in knt gene, E. coli kanamycin selection, DiMSum; sequences stand for … in CUCUCU…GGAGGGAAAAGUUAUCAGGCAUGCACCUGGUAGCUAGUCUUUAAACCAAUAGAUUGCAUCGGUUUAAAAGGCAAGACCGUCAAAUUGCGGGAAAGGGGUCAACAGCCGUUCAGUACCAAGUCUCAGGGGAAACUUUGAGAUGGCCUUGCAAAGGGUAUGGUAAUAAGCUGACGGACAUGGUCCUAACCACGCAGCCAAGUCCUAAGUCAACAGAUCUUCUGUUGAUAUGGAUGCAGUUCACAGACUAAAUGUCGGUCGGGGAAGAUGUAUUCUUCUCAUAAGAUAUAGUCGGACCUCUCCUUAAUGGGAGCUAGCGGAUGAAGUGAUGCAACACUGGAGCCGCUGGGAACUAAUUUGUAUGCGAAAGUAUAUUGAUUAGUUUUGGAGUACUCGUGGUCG;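 note: selection with 25 µg/mL kanamycin versus none on LB agar overnight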
# particulars: 30 °C
Just the number, please, no unit after it.

// below: answered sequences
UUCCAGCAAUAUUACGCACU    -3.48
AAUUAGCAAUAUUACGCUCA    -0.656
UACCAGCAAUAUUACGUGCG    -0.811
CGGCAGCAAUAUUACGUCGA    -3.24
AUGUAGCAAUAUUACGAUGA    -0.624

Suppose we examine the sequence CGAGAGCAAUAUUACGCGCG ; what self-splicing fitness (ln) value has been reported?
-1.64

Suppose we examine the sequence CGUCAGCAAUAUUACGGGUA ; what self-splicing fitness (ln) value has been reported?
-1.81

Suppose we examine the sequence AUUAAGCAAUAUUACGCAUU ; what self-splicing fitness (ln) value has been reported?
-2.35

Suppose we examine the sequence CAUGAGCAAUAUUACGCCUG ; what self-splicing fitness (ln) value has been reported?
-2.93

Suppose we examine the sequence GUCCAGCAAUAUUACGUCUG ; what self-splicing fitness (ln) value has been reported?
-3.8

Suppose we examine the sequence CUUGAGCAAUAUUACGACAG ; what self-splicing fitness (ln) value has been reported?
-1.19

Suppose we examine the sequence AUAAAGCAAUAUUACGGGAC ; what self-splicing fitness (ln) value has been reported?
-1.72

Suppose we examine the sequence GACCAGCAAUAUUACGCAAA ; what self-splicing fitness (ln) value has been reported?
-1.75

Suppose we examine the sequence AAGUAGCAAUAUUACGAAAU ; what self-splicing fitness (ln) value has been reported?
-2.3

Suppose we examine the sequence AAAUAGCAAUAUUACGCAAA ; what self-splicing fitness (ln) value has been reported?
-2.3

Suppose we examine the sequence CAACAGCAAUAUUACGUCUU ; what self-splicing fitness (ln) value has been reported?
-1.48
